Biological target: Rap guanine nucleotide exchange factor 4 (Homo sapiens)
Assay: Confirmatory qHTS for antagonist of cAMP-regulated guanine nucleotide exchange factor 4 (EPAC2) (AID 1645885); further: nearly all actives have a fitted effect of over 25% in size
Details: EPAC2 Rap1B-BODIPY-GDP exchange fluorescence, biochemical; series mostly up to 12.7 µM
Inconclusive results are not listed. Calls of active or inactive are those of the source. The call rests on the fitted dose curve; in most records, active means well fitted inhibition curve with a large enough effect; inconclusive means small, poorly fitted or top-dose-only effect; inactive means no such curve, though single readings can be large or run the other way.
property label: outcome

1. N#Cc1cc(NC(=O)c2ccc(Cl)cc2)ccc1Sc1ccccc1
inactive
2. COc1ccc(OC)c(NC(=O)Cc2c(C(=O)O)n(C)c3ccc(C)cc23)c1
inactive
3. CC(C)CCNC1c2ccccc2C(=O)N1Cc1ccccc1 (stereo not given)
inactive
4. O=c1[nH]c(/C=C/c2cccc([N+](=O)[O-])c2)c([N+](=O)[O-])c(=O)[nH]1
inactive

What value of outcome has been reported for the following compound? `CCOC(=O)Cc1nn(Cc2ccccc2)c(=O)c2ccccc12`
inactive

###

System: CP192
Assay: qHTS profiling for inhibitors of Plasmodium falciparum proliferation (AID 504749); further: nearly all actives have a fitted effect of over 60% in size
Details: P. falciparum in erythrocytes, SYBR Green DNA, 72 h; series mostly up to 12.8 µM
Inconclusive results are not listed. Active and inactive are the calls of the source. Calls come from the whole dose curve; as a rule, active = well fitted inhibition curve with a large enough effect; inconclusive = small, poorly fitted or top-dose-only effect; inactive = flat fitted curve, though single readings scatter.
property label: outcome

1) CCC(=O)O[C@@H]1[C@H](C)O[C@H](O[C@H]2[C@@H](N(C)C)[C@H](O)[C@@H](O[C@@H]3[C@@H](CC=O)C[C@@H](C)[C@@H](O)/C=C\C=C/C[C@@H](C)OC(=O)C[C@@H](OC(=O)CC)[C@H]3OC)O[C@H]2C)C[C@]1(C)O
inactive
2) CC1C2CCC3C4CC=C5CC(N(C)C)CC[C@@]5(C)C4CC[C@@]32CN1C (stereo partly drawn)
inactive
3) CCCCC[C@H](O)/C=C\[C@H]1[C@H](C/C=C\CCCC(=O)O)[C@@H](O)C[C@H]1O (tested in a mixture with another compound)
inactive

###

Target: 3',5'-cyclic-AMP phosphodiesterase 4B (Homo sapiens)
Assay: qHTS Assay for Inhibitors of PDE-IV (AID 607)
Details: HEK293 ACTOne CNG channel cells, membrane potential fluorescence; series mostly up to 22.9 µM
Results filed as inconclusive are left out. Calls of active or inactive are those of the source. Calls come from the whole dose curve; as a rule, active = well fitted activation curve with a large enough effect in the main read-out, with a control signal flat (not every such curve was filed as active); inconclusive = small, poorly fitted or top-dose-only effect, or effect the other way, or a change in a side signal; inactive = flat fitted curve, though single readings scatter.
property label: outcome

1) COc1cc2nc(N3CCN(C(=O)[C@@H]4COc5ccccc5O4)CC3)nc(N)c2cc1OC
inactive
2) CC[C@H](CO)NCCN[C@@H](CC)CO
inactive
3) C=CCO[C@@H](Cn1ccnc1)c1ccc(Cl)cc1Cl
inactive

###

Tested on: SC27B
Test: qHTS profiling for inhibitors of Plasmodium falciparum proliferation (AID 504749); further: nearly all actives have a fitted effect of over 60% in size
Conditions: P. falciparum in erythrocytes, SYBR Green DNA, 72 h; series mostly up to 12.8 µM
Experimental: NIH National Institute of Allergy and Infectious Diseases [NIAID] NIH Chemical Genomics Center [NCGC] […] Because mature erythrocytes lack DNA, only Plasmodium-derived DNA is detected. NCGC Assay Protocol Summary: The SYBR Green viability assay was adapted from a method described previously (Plouffe et al., 2008). […] The following morning, fluorescence intensity at 485(14) nm excitation and 535(25) nm emission wavelengths was measured on an EnVision (Perkin Elmer) plate reader. […]
Records with an inconclusive call do not appear. Calls of active or inactive are those of the source. Calls come from the whole dose curve; as a rule, active = well fitted inhibition curve with a large enough effect; inconclusive = small, poorly fitted or top-dose-only effect; inactive = flat fitted curve, though single readings scatter.
In this exercise, the only acceptable responses are yes (active), no (inactive)

A selection of reference data follows.
1. CC1CCC(C(C)C)C(=O)C1 (centres undefined)
no
2. C#C[C@]1(O)CC[C@@H]2[C@H]3CCC4=CCCC[C@@H]4[C@@H]3CC[C@@]21C
no
3. CC1(C)OC2CO[C@]3(COS(N)(=O)=O)OC(C)(C)OC3C2O1 (some centres undefined)
no
4. COc1c(O[C@H]2O[C@@H](CO)[C@@H](O)[C@@H](O)[C@@H]2O)cc2c(c1OC)-c1ccc(SC)c(=O)cc1[C@H](NC(C)=O)CC2
no
5. CC(=C(CCOP(=O)(O)O)SC(=O)c1ccccc1)N(C=O)Cc1cnc(C)nc1N
no
6. O=C(N/N=C\c1ccc([N+](=O)[O-])o1)c1ccc(O)cc1
yes
7. NC[C@@H]1O[C@H](O[C@H]2[C@H](O)[C@H](O[C@@H]3O[C@H](CO)[C@@H](O)[C@H](N)[C@@H]3O)[C@@H](N)C[C@H]2N)[C@@H](O)[C@H](O)[C@@H]1O
no
8. CCC(C)C(=O)OC1CC(O)C=C2C=CC(C)C(CCC(O)CC(O)CC(=O)O)C21 (centres undefined)
no

Continue with the compound presented below.
How did this test come out for `C[C@H](C(=O)O)c1cccc(Oc2ccccc2)c1` ?
no
